experiment: Toxicity against Trypanosoma cruzi Colombiana infected Swiss mouse assessed as mouse survival at 120 mg/kg/day, po after 25 days; format: organism-based; set-up: route oral; conditions: in vivo, read-out: Activity
PROPERTY_MEASURED: survival at 600 h

The cases that follow already have their survival at 600 h on record.
[O-][n+]1onc2ccc(/C=C/c3ccc4c(c3)OCO4)cc21
100%
O=C(Cn1ccnc1[N+](=O)[O-])NCc1ccccc1
100%
[O-][n+]1onc2ccc(/C=C/c3ccccc3)cc21
100%

# input Please give measured survival at 600 h of the following entry: "[O-][n+]1onc2ccc(/C=C\c3ccc4c(c3)OCO4)cc21"
# output 100%

Where do the numbers come from? From ChEMBL document CHEMBL1154443.
